Tested on: MCF7
experiment: Cytotoxicity against Homo sapiens (human) MCF-7 cells assessed as decrease in number of viable cells after 48 hr by MTT assay
Assay type: ADME, cell-based
details: MCF7, 48 h
pIC50: −log10 of the molar value.
readoutKind: pIC50

Known pIC50 results, listed for orientation:
CC(=O)Nc1ccc(S(=O)(=O)n2nc(-c3ccccc3)c3c(N)ncnc32)cc1	< 3.60
Cc1ccc(S(=O)(=O)n2nc(-c3ccccc3)c3c(N)ncnc32)cc1	< 3.60

Let us examine a further case.
-- ask Looking for the measured pIC50 of `Cc1ncc([N+](=O)[O-])n1CCO` , can you help?
-- reply < 3.60

The measurements presented in this section are drawn from ChEMBL document CHEMBL3045953.
